experiment: Stability of cannabinoid compounds and Vitamin E components in Beverage 2 (AB Red) by LCMSMS; format: physicochemical; details: stored at 8° C., 330 days
Collected Stability of Plant-Derived Cannabinoid Compounds in AB Red values appear next to each entry.
Kindly report the value followed by its unit.

Compound: CCCCCc1cc(O)c2c(c1)OC(C)(C)[C@@H]1CCC(C)=C[C@@H]21 [D9 THC, delta-9-tetrahydrocannabinol, reference compound]
Observed: 12.7 µg/mL
//
Compound: CCCCCc1cc(O)c2c(c1)OC(C)(C)c1ccc(C)cc1-2 [CBN, cannabinol]
Observed: 2.71 µg/mL
//
Compound: C=C(C)[C@@H]1CCC(C)=C[C@H]1c1c(O)cc(CCCCC)c(C(=O)O)c1O [CBDA, cannabidiolic acid]
Observed: 1.60 µg/mL
//
Compound: CCCc1cc(O)c2c(c1)OC(C)(C)[C@@H]1CCC(C)=C[C@@H]21 [THCV, delta-9-tetrahydrocannabivarin]
Observed: 3.15 µg/mL
//
Compound: CCCCCc1cc(O)c2c(c1)OC(C)(CCC=C(C)C)C=C2 (stereo not drawn) [CBC, cannabichromene]
Observed: 0.278 µg/mL

[ask] Name the reported Stability of Plant-Derived Cannabinoid Compounds in AB Red value associated with the compound CCCCCc1cc(O)c2c(c1)OC1(C)CCC3C1C2C3(C)C (stereo not drawn) [CBL, cannabicyclol]
[reply] 0.505 µg/mL

[ask] C=C(C)[C@@H]1CCC(C)=C[C@H]1c1c(O)cc(CCC)cc1O [CBDV, cannabidivarin] ?
[reply] 0.191 µg/mL

[ask] Follow-up entry: CCCCCc1cc(O)c(C/C=C(\C)CCC=C(C)C)c(O)c1 [CBG, cannabigerol]
[reply] 4.60 µg/mL

[ask] Then what about the compound CCCCCc1cc2c(c(O)c1C(=O)O)[C@@H]1C=C(C)CC[C@H]1C(C)(C)O2 [D9 THCA, delta-9-tetrahydrocannabinolic acid] ?
[reply] 1.34 µg/mL
